# Activity values compiled below
assay.method.text: Cytotoxicity against Mus musculus (mouse) EAC cells assessed as dead cell at ED25 ug/cm'3 after 2 hr by trypan blue assay
Assay type: functional, Ehrlich
Report the figure in % without appending any unit label.

// below: answered compounds
- Nc1c(C(=O)c2cc3ccccc3oc2=O)sc(Nc2ccccc2)c1C(=O)N1NC(=O)C2C3c4ccccc4C(c4ccccc43)C2C1=O (stereo unspecified): 1.6
- Nc1c(C(=O)c2cc3ccccc3oc2=O)sc(Nc2ccccc2)c1C(=O)Nc1nc(-c2cc3ccccc3oc2=O)cs1: 1.7
- N#C/C(C(=O)N1NC(=O)C2C3c4ccccc4C(c4ccccc43)C2C1=O)=C1/SC=C(c2cc3ccccc3oc2=O)N1c1ccccc1 (stereo unspecified): 1.1
- O=c1[nH]cc(F)c(=O)[nH]1 [FLUOROURACIL]: 37
- N#C/C(=C1/SC=C(c2cc3ccccc3oc2=O)N1c1ccccc1)c1nc2ccccc2s1: 1.5
- N=c1oc2ccccc2cc1C(=O)Nc1nc(-c2cc3ccccc3oc2=O)cs1: 1.3

Value of measured Activity for the entry "Nc1c(C(=O)c2cc3ccccc3oc2=O)sc(Nc2ccccc2)c1-c1nc2ccccc2[nH]1" : 1.4

====

assay.method.text: Cytotoxicity against Mus musculus (mouse) EAC cells assessed as dead cell at ED25 ug/cm'3 after 2 hr by trypan blue assay
Assay type: functional, Ehrlich
quantity.name: Activity (%)
Quick note: give the figure in %, leave out the unit.

Here are 3 compounds together with their reported answers.
- N#C/C(C(=O)Nc1nc(-c2cc3ccccc3oc2=O)cs1)=C1/SC(=O)CN1c1ccccc1: 1.6
- N#C/C(C(=O)Nc1nc(-c2cc3ccccc3oc2=O)cs1)=C(\Nc1ccccc1)SCC(=O)c1cc2ccccc2oc1=O: 1.5
- Nc1c(C(=O)c2cc3ccccc3oc2=O)sc(Nc2ccccc2)c1-c1nc2ccccc2s1: 1.6

Per the record, "N#CCC(=O)Nc1nc(-c2cc3ccccc3oc2=O)cs1" has Activity of 1.8
